Tested on: BCL2 G101V
Assay: TR-FRET competitive binding assay, BCL2 G101V
Design: species or system human
Conditions: ratio Ki BCL2 G101V / Ki BCL2 WT
TR_FRET EKI G101V/WT selectivty ratio values, listed per item
Reply: number alone, nothing else.

Field: example entries. Status: answers known.
INSERT INTO results (compound, study_system, experimental_endpoint, assay_result) VALUES
  ('Cc1c(N(C(=O)c2cc(-c3cc4c(cc3C(=O)N3Cc5ccccc5C[C@H]3CN3CCCC3)CN(C(=O)Cc3ccc(OCCC5CCOCC5)cc3)CC4)n(C)c2C)c2ccc(O)cc2)cc(C#N)n1C', 'BCL2 G101V', 'TR_FRET EKI G101V/WT selectivty ratio', 5.2),
  ('Cc1c(N(C(=O)c2cc(-c3cc4c(cc3C(=O)N3Cc5ccccc5C[C@H]3CN3CCCCC3)CN(C(=O)Cc3ccc(OCCN5CCC(F)CC5)cc3)CC4)n(C)c2C)c2ccc(O)cc2)cc(C#N)n1C', 'BCL2 G101V', 'TR_FRET EKI G101V/WT selectivty ratio', 5.5),
  ('Cc1c(N(C(=O)c2cc(-c3cc4c(cc3C(=O)N3Cc5ccccc5C[C@H]3CN3CCCCC3)CN(C(=O)Cc3ccc(OC(C)(C)CN5CCOCC5)cc3)CC4)n(C)c2C)c2ccc(O)cc2)cc(C#N)n1C', 'BCL2 G101V', 'TR_FRET EKI G101V/WT selectivty ratio', 20.4),
  ('Cc1c(N(C(=O)c2cc(-c3cc4c(cc3C(=O)N3Cc5ccccc5C[C@H]3CN3CCCCC3)CN(C(=O)Cc3ccc(O[C@H]5CCN(CCF)C5)cc3F)CC4)n(C)c2C)c2ccc(O)cc2)cc(C#N)n1C', 'BCL2 G101V', 'TR_FRET EKI G101V/WT selectivty ratio', 4.3);

Switching to the query record.
Recorded TR_FRET EKI G101V/WT selectivty ratio for Cc1c(N(C(=O)c2cc(-c3cc4c(cc3C(=O)N3Cc5ccccc5C[C@H]3CN3CCCCC3)CN(C(=O)Cc3ccc(OCCC5COCCO5)cc3F)CC4)n(C)c2C)c2ccc(O)cc2)cc(C#N)n1C (single isomer, unassigned) [Example 175] with BCL2 G101V, please?
7.0

----------
Molecular target: BCL2 WT (Homo sapiens (Human), UniProt P10415)
Sequence (P10415 other isoform, or with tags, fused parts or gaps): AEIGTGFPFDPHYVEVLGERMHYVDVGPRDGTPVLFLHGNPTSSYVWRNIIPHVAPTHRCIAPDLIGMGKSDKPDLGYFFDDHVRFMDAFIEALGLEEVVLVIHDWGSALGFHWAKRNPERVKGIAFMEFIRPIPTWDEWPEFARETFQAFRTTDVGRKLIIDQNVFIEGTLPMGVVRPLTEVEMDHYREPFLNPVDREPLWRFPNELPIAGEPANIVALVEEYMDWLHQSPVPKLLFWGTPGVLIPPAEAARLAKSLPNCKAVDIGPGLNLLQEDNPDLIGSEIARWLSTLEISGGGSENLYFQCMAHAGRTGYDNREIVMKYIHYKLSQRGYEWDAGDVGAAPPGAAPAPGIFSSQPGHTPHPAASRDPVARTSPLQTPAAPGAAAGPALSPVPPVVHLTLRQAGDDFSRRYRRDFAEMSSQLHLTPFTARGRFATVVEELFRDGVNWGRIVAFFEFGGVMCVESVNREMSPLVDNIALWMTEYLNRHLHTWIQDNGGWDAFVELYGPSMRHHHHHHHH
Experiment: TR-FRET competitive binding assay, BCL2 WT
Conditions: Ki determined from IC50, read-out: TR_FRET EKI_Bcl2 WT
log10 of Ki values, listed per item
Field: value | Transform: log10 | Quantity: Ki | Unit: nM

Could you share which log10 of Ki value was measured for Cc1c(N(C(=O)c2cc(-c3cc4c(cc3C(=O)N3Cc5ccccc5C[C@H]3C)CN(C(=O)Cc3ccc(OCCN5C[C@H](C)O[C@@H](C)C5)cc3)CC4)n(C)c2C)c2ccc(O)cc2)cc(C#N)n1C (single isomer, unassigned) ?
-0.74

Could you share which log10 of Ki value was measured for Cc1c(N(C(=O)c2cc(-c3cc4c(cc3C(=O)N3Cc5ccccc5C[C@H]3C)CN(C(=O)C(F)(F)c3ccc(N5CCN(C)CC5)cc3)CC4)n(C)c2C)c2ccc(O)cc2)cc(C#N)n1C ?
0.04

Could you share which log10 of Ki value was measured for Cc1c(N(C(=O)c2cc(-c3cc4c(cc3C(=O)N3Cc5ccccc5C[C@H]3C)CN(C(=O)Cc3ccc(OCCN5CCOCC5)cc3)CC4)n(C)c2C)c2ccc(O)cc2)cc(C#N)n1C ?
-0.96

Could you share which log10 of Ki value was measured for Cc1nn(C)cc1N(C(=O)c1cc(-c2cc3c(cc2C(=O)N2Cc4ccccc4C[C@H]2C)CN(C(=O)Cc2ccc(OCCN4CCOCC4)cc2)CC3)n(C)c1C)c1ccccc1 ?
-1.52

Could you share which log10 of Ki value was measured for COc1cccc(CC(=O)N2CCc3cc(-c4cc(C(=O)N(c5ccc(O)cc5)c5cc(C#N)n(C)c5C)c(C)n4C)c(C(=O)N4Cc5ccccc5C[C@H]4C)cc3C2)c1 ?
-0.85

Could you share which log10 of Ki value was measured for Cc1c(N(C(=O)c2cc(-c3cc4c(cc3C(=O)N3Cc5ccccc5C[C@H]3CN3CCCCC3)CN(C(=O)Cc3ccc(OCCN5CCC(F)CC5)cc3F)CC4)n(C)c2C)c2ccc(O)cc2)cc(C#N)n1C ?
-1.52

Could you share which log10 of Ki value was measured for Cc1c(N(C(=O)c2cc(-c3cc4c(cc3C(=O)N3Cc5ccccc5C[C@H]3CN(C)C(C)C)CN(C(=O)Cc3ccc(OCCN(C)C5CC5)cc3)CC4)n(C)c2C)c2ccc(O)cc2)cc(C#N)n1C ?
-1.10

Could you share which log10 of Ki value was measured for Cc1c(N(C(=O)c2cc(-c3cc4c(cc3C(=O)N3Cc5ccccc5C[C@H]3C)CN(C(=O)Cc3ccc(C5CCN(CCF)CC5)c(F)c3)CC4)n(C)c2C)c2ccc(O)cc2)cc(C#N)n1C ?
-0.60

Could you share which log10 of Ki value was measured for Cc1c(N(C(=O)c2cc(-c3cc4c(cc3C(=O)N3Cc5ccccc5C[C@H]3C)CN(C(=O)Cc3ccc(OCCN5CCN(CC(F)F)CC5)cc3)CC4)n(C)c2C)c2ccc(O)cc2)cc(C#N)n1C ?
-0.96

Could you share which log10 of Ki value was measured for Cc1c(N(C(=O)c2cc(-c3cc4c(cc3C(=O)N3Cc5ccccc5C[C@H]3CN3CCCC[C@@H]3C)CN(C(=O)Cc3ccc(OCCN5CCOCC5)cc3F)CC4)n(C)c2C)c2ccc(O)cc2)cc(C#N)n1C ?
-1.15
